Test system: HIV-1 Env-pseudoviruses (208-strain panel)
Test: microbe, parasite or virus in culture
Type: cell-based
Conditions: Human immunodeficiency virus 1, TZM-bl, TV1.29, clade C; read-out: IC50
READOUT KIND: IC50 (nM)
Number only, in nM; omit the unit.

Prompt line: IC50 lookup needed for COc1cnc(-c2csc(C(=O)NCCO)n2)c2[nH]cc(C(=O)C(=O)N3CCC(=C(C#N)c4ccccc4)CC3)c12 [BMS-818251] , thanks.
Response line: 1

* * *

Test system: HIV-1 Env-pseudoviruses (208-strain panel)
Assay: microbe, parasite or virus in culture
Type: cell-based
Conditions: Human immunodeficiency virus 1, TZM-bl, 0815.v3.c3, clade ACD; read-out: IC50
READOUT KIND: IC50 (nM)
Number only, in nM; omit the unit.

Prompt line: IC50 lookup needed for COc1cnc(-c2csc(C(=O)NCCO)n2)c2[nH]cc(C(=O)C(=O)N3CCC(=C(C#N)c4ccccc4)CC3)c12 , thanks.
Response line: 0.1

* * *

Tested on: HIV-1 Env-pseudoviruses (208-strain panel)
Assay: microbe, parasite or virus in culture
Assay type: cell-based
Conditions: Human immunodeficiency virus 1, TZM-bl, 45_01dG5, clade B; read-out: IC50
READOUT KIND: IC50 (nM)
Number only, in nM; omit the unit.

Prompt line: IC50 lookup needed for COc1cnc(-c2csc(C(=O)NCCO)n2)c2[nH]cc(C(=O)C(=O)N3CCC(=C(C#N)c4ccccc4)CC3)c12 [BMS-818251] , thanks.
Response line: 0.2

* * *

System: HIV-1 Env-pseudoviruses (208-strain panel)
Test: microbe, parasite or virus in culture
Format: cell-based
Conditions: Human immunodeficiency virus 1, TZM-bl, 0439.v5.c1, clade A; read-out: IC50
Protocol: Neutralization was measured using single-round-of-infection HIV-1 Env-pseudoviruses and TZM-bl target cells (ARP Cat No. #8129)[44],[45]. Compounds were prepared at 400 μM with 4% DMSO (dimethyl sulfoxide) in PBS (phosphate-buffered saline) and diluted 20 times as the starting concentration for serial dilution in the neutralization assays. […] After incubation at 37 °C for 2 days, infection of target cells was measured by luciferase activity. […]
READOUT KIND: IC50
Please don't drop the unit; write it after the number.

Prompt line: IC50 lookup needed for COc1cnc(-c2csc(C(=O)NCCO)n2)c2[nH]cc(C(=O)C(=O)N3CCC(=C(C#N)c4ccccc4)CC3)c12 , thanks.
Response line: 600 pM

* * *

Test system: HIV-1 Env-pseudoviruses (30-strain panel)
Experiment: Neutralization assay, cross-clade 30-strain panel (Env-pseudoviruses, TZM-bl target cells)
Assay type: cell-based
Details: Human immunodeficiency virus 1, TZM-bl, […]; read-out: IC50
READOUT KIND: IC50 (µM)
Number only, in µM; omit the unit.

Prompt line: IC50 lookup needed for O=C(c1ccsc1)N1CCN(C(=O)C2(c3cccc(Cl)c3)CC2)CC1 [Compound 484, reference compound] , thanks.
Response line: 13.6

* * *

Tested on: HIV-1 Env-pseudoviruses (208-strain panel)
Assay: microbe, parasite or virus in culture
Assay type: cell-based
Conditions: Human immunodeficiency virus 1, BAL, TZM-bl, BaL.26, clade B; read-out: IC50
READOUT KIND: pIC50
// pIC50: -log10(molar conc.)

Prompt line: pIC50 lookup needed for COc1cnc(-c2csc(C(=O)NCCO)n2)c2[nH]cc(C(=O)C(=O)N3CCC(=C(C#N)c4ccccc4)CC3)c12 , thanks.
Response line: 10.00
